target: N-formyl peptide receptor 2 (Homo sapiens) (UniProt P25090); assay: concentration-dependent FPRL1 ligand displacement – cell-based, FPR counter-screen, fluorescent ligand, dose response (AID 520); details: FPRL1-expressing cells, fluorescent ligand binding inhibition
Sequence (P25090 whole entry, looked up): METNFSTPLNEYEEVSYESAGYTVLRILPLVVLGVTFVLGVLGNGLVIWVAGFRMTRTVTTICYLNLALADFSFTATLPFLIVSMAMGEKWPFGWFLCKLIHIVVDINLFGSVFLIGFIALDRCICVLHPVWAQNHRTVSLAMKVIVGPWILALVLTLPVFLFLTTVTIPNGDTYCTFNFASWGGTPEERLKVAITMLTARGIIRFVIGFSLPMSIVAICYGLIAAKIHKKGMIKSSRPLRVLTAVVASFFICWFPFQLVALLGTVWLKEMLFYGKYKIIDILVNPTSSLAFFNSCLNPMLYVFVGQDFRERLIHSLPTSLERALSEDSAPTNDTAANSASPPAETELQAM
Calls of active or inactive are those of the source. The rule behind the calls is not given here.
assay.metric: IC50

### Prompt Any idea what its IC50 is? The molecule is O=C(C1=C(O)C(=O)N(Cc2ccco2)C1c1ccccc1)c1cccs1 (stereo not drawn)
### Response > 66.7 µM (inactive)

### Prompt Then what about the molecule COCCCN1C(=O)C(=O)/C(=C(/O)c2ccc3c(c2)CC(C)O3)C1c1cccnc1 (stereo not drawn) ?
### Response > 66.7 µM (inactive)
